Attribute: viability at 10 µM
Tested on: HL-60 (Acute Promyelocytic Leukemia)
Experiment Description: Cell viability analysis, leukemia HL-60
Type: cell-based, human
Settings: Homo sapiens, HL-60, 72 h, drug 10 μM, 72 hours, WST-1, OD450 nm; read-out: cell viability (survival rate), HL-60

| Compound | Assayed Target | Readout Units | viability at 10 µM |
| --- | --- | --- | --- |
| N[C@@H](C(=O)N[C@@H]1C(=O)N2C(C(=O)O)=C(Cl)CS[C@H]12)c1ccccc1 | HL-60 (Acute Promyelocytic Leukemia) | % | 112 |
| CC(=O)O[C@]1(C(C)=O)CC[C@H]2[C@@H]3C[C@H](C)C4=CC(=O)CC[C@]4(C)[C@H]3CC[C@@]21C [Medroxyprogesterone acetate] | HL-60 (Acute Promyelocytic Leukemia) | % | 51.7 |
| OC[C@H]1O[C@H](O[C@]2(CCl)O[C@H](CCl)[C@@H](O)[C@@H]2O)[C@H](O)[C@@H](O)[C@H]1Cl | HL-60 (Acute Promyelocytic Leukemia) | % | 88.5 |
